Hey, just so you know, these numbers are from paper PMC8402075.

tested on: P. falciparum (NF54-luc strain) erythrocytic stages; assay: Luciferase-based viability screening for antiplasmodial activity; type: cell-based, Plasmodium falciparum; settings: Plasmodium falciparum, NF54, read-out: IC50, Pf [µM]
Quick rule for you: IC50 under 0.5 µM gets Yes, anything else gets No.

# check: IC50 < 0.5 µM for "COc1ccc2[nH]cc(-c3c(-c4c[nH]c5ccc(I)cc45)c(=O)c3=O)c2c1" No

# check: IC50 < 0.5 µM for "COc1ccc2[nH]cc(-c3c(-c4c[nH]c5ccc(Br)cc45)c(=O)c3=O)c2c1" Yes

# check: IC50 < 0.5 µM for "CN(C)CCCn1cc(-c2c(-c3c[nH]c4ccccc34)c(=O)c2=O)c2ccccc21" Yes

# check: IC50 < 0.5 µM for "Cn1cc(-c2c(-c3c(-c4ccccc4)[nH]c4ccccc34)c(=O)c2=O)c2ccccc21" No

# check: IC50 < 0.5 µM for "O=c1c(-c2c[nH]c3ccccc23)c(-c2c[nH]c3ccc(Br)cc23)c1=O" No

* * *

System: P. falciparum (NF54-luc strain) erythrocytic stages
Experiment: Luciferase-based viability screening for antiplasmodial activity
Type: cell-based, Plasmodium falciparum
Conditions: Table 1; 48 h incubation, luminescence viability readout; read-out: IC50 [µM], concentration for 50% inhibition of P. falciparum (NF54-luc strain) erythrocytic stages
Procedure: All synthesized new bisindolylcyclobutenediones 2a–2ar and the related bisindolylmaleimide 8 [37] were screened for inhibition of erythrocytic stages of Plasmodium falciparum employing a bioluminescence-based viability assay on transgenic parasites that constitutively express luciferase (PfNF54-luc). Initially, the compounds were evaluated in single-dose test runs (3 µM). If >20% viability inhibition was observed, dose-response curves were generated and IC50 values were calculated (Table 1). […]
quantity.measured: IC50 (µM)
Report only the number, with the unit µM understood.

Respond only with IC50 recorded for CN(CC[C@H](N)CC(=O)N[C@H]1C=C[C@H](n2ccc(N)nc2=O)O[C@@H]1C(=O)O)C(=N)N [BSD, Blasticidin, reference compound] 0.288

* * *

Tested on: P. falciparum (NF54-luc strain) erythrocytic stages
Test: Luciferase-based viability screening for antiplasmodial activity
Format: cell-based, Plasmodium falciparum
Settings: Plasmodium falciparum, NF54, read-out: IC50, Pf [µM]
Procedure: All synthesized new bisindolylcyclobutenediones 2a–2ar and the related bisindolylmaleimide 8 [37] were screened for inhibition of erythrocytic stages of Plasmodium falciparum employing a bioluminescence-based viability assay on transgenic parasites that constitutively express luciferase (PfNF54-luc). Initially, the compounds were evaluated in single-dose test runs (3 µM). If >20% viability inhibition was observed, dose-response curves were generated and IC50 values were calculated (Table 1). […]
Quick rule for you: IC50 under 0.7 µM gets Y, anything else gets N.

# check: IC50 < 0.7 µM for "CCc1cccc2c(-c3c(-c4c[nH]c5ccc(OC)cc45)c(=O)c3=O)c[nH]c12" Y

# check: IC50 < 0.7 µM for "O=c1c(-c2c[nH]c3ccccc23)c(-c2c(-c3ccccc3)[nH]c3ccccc23)c1=O" N

# check: IC50 < 0.7 µM for "COc1ccc2[nH]cc(-c3c(-c4c[nH]c5c(I)cccc45)c(=O)c3=O)c2c1" Y

# check: IC50 < 0.7 µM for "COc1ccc2c(c1)c(-c1c(-c3c[nH]c4ccc(Br)cc34)c(=O)c1=O)cn2C" Y

# check: IC50 < 0.7 µM for "O=c1c(-c2c[nH]c3ccccc23)c(-c2c[nH]c3ccc(I)cc23)c1=O" N

# check: IC50 < 0.7 µM for "Cc1[nH]c2ccccc2c1-c1c(-c2cn(C)c3ccccc23)c(=O)c1=O" N

# check: IC50 < 0.7 µM for "COc1ccc2[nH]cc(-c3c(-c4c[nH]c5c(Br)cccc45)c(=O)c3=O)c2c1" Y

# check: IC50 < 0.7 µM for "Cn1cc(-c2c(-c3c[nH]c4ccccc34)c(=O)c2=O)c2ccccc21" N
